Target: pooled human IgG (human IgG1,2,3 and 4)
RESULT TYPE: Enzyme Activity Endpoint Assay (purified): IgG (ng/µL)
The reply should contain only the number, in ng/µL.

Here is how some proteins turned out for Enzyme Activity Endpoint Assay (purified): IgG.
Enquiry: Given the entry PRT-295 (protein) MVTSVWTKGVTPPADFTQGEDVFHAPYDANQGWYDITKTFNGKDDLLCGAATAGNMLHWWFDQNKEYIEAYLKKHPEKQKIMFGDQELLDVRKAINTKGSQKNSELFNYFRDKAFPNLSARRLGVMPDLVLDMFINGYYLNVTKTQTTDVNRTYQEKDKRGGIFDAVFTRGDQSKLLTSRHDFKEKGLKEISDLIKQELTEGKALGLSHTYANVRISHVINLWGADFDSDGNLKAIYVTDSDSNASIGMKKYFVGVNSSGKVAISAKEIKEDNIGAQVLGLFTLSTGQDIWNQTN , report its measured Enzyme Activity Endpoint Assay (purified): IgG.
Return: 446

Enquiry: Would you mind doing PRT-354 (protein) MSQTEDSESLQRLRDIEDFQAEKKMQNVVYTKWLDGVDVKDHDFRKIVDGNEAYYATPLLNGRGFYDINKDFNRDSDKCAAAVAANMFHYWLDINRDNVDRFLRQNPEKHGIIELPDGQLKLSDFLNTYESDHGYRDKSKLFDFISENFNGPVWTDKLLDNYINGYAYNYKYGRTIEDPTKNTSKINFFKEVFNEKILTNNHSIRNQNELSVLLSEALYTGKAIGLSYGPAGLRHSLGHIISVWGADLDADGNVVAIYVTDSDDKKLTIGDERVGLKRYKISTDDENRLRLTAYEETHNTGGQIRGLWTLDTGKYAWADYFDKTEQTGTDQAEQ as well?
Return: 0

Enquiry: Repeat for the following protein: PRT-520 (protein) MVTSVWTKGVTPPTDFRKIVDGNIAYYHAPYKAGQGWYDITKAFDGGDNLLCGAATAGNMLHWWFDQNKEYIEAYLKKHPEKQKIIFNNQELFDLKAAINTKGSQKNSELFNYFRDKAFPNLSARRLGVFPDLVLDMFINGYYLNVTKTQTTDVNRTYQEKDKRGGIFDAVFTRGVQSKLLTSRHDLKNKGLKEISDLIKQELTEGKALGLSHTYANVRINHVINLWGADFDSDGNLKAIYVTDSDTNASIGMKKYFVGVNSAGKVAISAKEIKEDNIGAQVLGLFTLSTGQDIWNQTNLEHHHHHH
Return: 470

Next:
Enquiry: Need Enzyme Activity Endpoint Assay (purified): IgG, item PRT-312 (protein) MQITSVWTKGVTPLTPEQFRENNEDVIHAPYLAHQGWYDITKAFDGKDNLLCGAATAGNMLHWWFDQNKTEIEAYLSKHPEKQKIIFGNQELFDLKAAIDTKDSQTNSQLFNYFRDKAFPNLSARQLGVMPDLVLDMFINGYYLNVGKTQSTDVNRPYQDKDKRGGIFDAVFTRGDQTTLLTARHDLKNKGLNDISTIIKQELTEGRALALSHTYANVSISHVINLWGADFNAEGNLEAIYVTDSDANPSIGMKKYFVGRNAHGHVAISAKKIEGENIGAQVLGLFTLSSGKDIWQKLS
Return: 53
